Test system: 786-0 renal
Assay: NCI tumour cell line growth inhibition, 48 h
// values below are reported TGI

>>> df
                                   molecule  data_value
0  COC(=O)c1cc(Cl)ccc1NC(=O)c1ccc([N+](=O)[O-])cc1     38.2 µM
1  O=C(COc1ccc(/C=C2\Oc3ccccc3C2=O)cc1)Nc1nc2c(s1)CCCC2     31.7 µM
2  COc1ccc(/C=C2\S/C(=N/Nc3nc(-c4ccccc4)cs3)NC2=O)cc1OC     93.4 µM
3          CC1(c2ccc[n+](Cc3ccccc3)c2)OCCO1    > 100 µM
4         O=C(O)c1nc(-c2ccccc2)[nH]c1C(=O)O     22.5 µM
5  Cc1ccc(CNc2c3ccccc3nc3cc(NC(=O)CCN4CCCC4)ccc23)cc1     2.04 µM
6  CCOC(=O)c1cc2c(C(=O)c3ccc([N+](=O)[O-])cc3)c(C(C)=O)ccc2[nH]1    > 100 µM
7  C=C1C(=O)OC2/C=C(/C)C(OC(C)=O)CC(O)/C(C)=C\C(OC(=O)/C(C)=C\C)C12 (stereo unspecified)     35.4 µM
8  CCN(CC)Cc1ccc(Nc2nccc(-c3cnn4ncccc34)n2)cc1   > 12.9 µM
9  COc1cc(C(=O)NC2CCN(C)CC2)c(F)cc1Nc1ncc2c(n1)N(C1CCCC1)CC(F)(F)C(=O)N2C     11.7 µM

Summary: `O=CN/C=C/c1ccc(O)c(O)c1` , 786-0 renal, TGI = > 100 µM

Summary: `O=C(Nc1cccc(NC(=O)Nc2cc(C(F)(F)F)ccc2Cl)c1)Nc1cc(C(F)(F)F)ccc1Cl` , 786-0 renal, TGI = > 100 µM

Summary: Cc1ccc(C)c(NC(=O)CC/C(=N\NC(=O)c2c(O)ccc3ccccc23)C(C)C(=O)c2ccc(O)cc2)c1 (stereo unspecified) , 786-0 renal, TGI = > 100 µM

###

Tested on: SN12C renal
Test: NCI tumour cell line growth inhibition, 48 h
// values below are reported TGI

Look over these answered cases.
In [3]: df
Out[3]:
                                   compound  data_value
0  Cc1ccc(S(=O)(=O)Nc2cccc3[nH]c(C(F)(F)F)nc23)cc1   > 89.2 µM
1  O=C1c2ccccc2-c2c1c1ccccc1c(=O)n2CCN1CCOCC1    > 100 µM

Documented TGI of `CC1(C)[C@@H](OC(N)=O)[C@H]2O[C@H]2[C@]2(CO)[C@H]3CC[C@]4(C)[C@@H](c5ccc(=O)oc5)[C@@H](Cl)C[C@]4(O)C3=CC[C@@H]12` : 0.0325 µM

Documented TGI of `C(CCCCc1nnc(N2CCCCC2)o1)CCCc1nnc(N2CCCCC2)o1` : > 100 µM

###

Tested on: T-47D breast
Assay: NCI tumour cell line growth inhibition, 48 h; in the data active = GI50 below about 0.43 µM; inactive = the rest
Respond using exactly one of the listed classes: active, inactive

Worked examples, 6 compounds total:
compound	assay system	discrete label
COc1ccc(/C=C2\CCCC3=C2NC(N)=NC3c2ccc(OC)c(OC)c2)cc1OC (stereo not given)	T-47D breast	inactive
O=C(Nc1ccc(Cl)cc1)Nc1ccc(Nc2nncc3ccccc23)cc1	T-47D breast	inactive
Cc1ccc(S(=O)(=O)Nc2cccc3[nH]c(C(F)(F)F)nc23)cc1	T-47D breast	inactive
COc1ccc(C2SC(C)C(=O)N2NC(=O)C(O)c2ccccc2)cc1OC (stereo not given)	T-47D breast	inactive
Nc1[nH]nc2nc(-c3cccs3)cc(C(F)(F)F)c12	T-47D breast	inactive
Cc1c2c(nn1C)CSCc1cc(n(C)n1)CSc1cc(c3ccccc3c1)OCCCc1c(C(=O)O)n(C)c3c-2c(Cl)ccc13	T-47D breast	inactive

Qu. Could you kindly confirm the outcome this assay logged for `CC(C)(O)CC(=O)NCCn1ccc2ncnc(Nc3ccc(Oc4cccc(C(F)(F)F)c4)c(Cl)c3)c21` ?
Ans. inactive

Qu. Could you kindly confirm the outcome this assay logged for `C1CN(SSN2CCOCC2)CCO1` ?
Ans. inactive

Qu. Could you kindly confirm the outcome this assay logged for `O=C1c2ccccc2-c2c1c1ccccc1c(=O)n2CCN1CCOCC1` ?
Ans. inactive

Qu. Could you kindly confirm the outcome this assay logged for `CCc1ccc(NC(=O)COC(=O)c2cc([N+](=O)[O-])ccc2Sc2nnnn2C)cc1` ?
Ans. inactive

Qu. Could you kindly confirm the outcome this assay logged for `O=c1nc2oc3ccc4ccccc4c3cc-2s1` ?
Ans. inactive

###

Test system: TK-10 renal
Test: NCI tumour cell line growth inhibition, 48 h
// values below are reported TGI

compound	data value
C1=C2/CC[C@H](Sc3ccccc3)[C@H]2C2(CCCCC/1)OCCO2	> 100 µM

Documented TGI of COc1ccc(C2N(NC(=O)c3ccncc3)C(=O)CS2(=O)=O)cc1F (stereo not given) : > 100 µM

Documented TGI of COC(=O)C1=CC2C(=O)OC1CC2C#N (stereo not given) : > 100 µM

Documented TGI of `O=C(O)c1nc(-c2ccccc2)[nH]c1C(=O)O` : 28.8 µM

###

Tested on: OVCAR-3 ovarian
Assay: NCI tumour cell line growth inhibition, 48 h
quantity: GI50

                                   compound  data_value
0  O=[N+]([O-])c1cccc([As]=[As]c2cccc([N+](=O)[O-])c2)c1 (centres undefined)     49.9 nM
1  O=C1c2ccccc2-c2c1c1ccccc1c(=O)n2CCN1CCOCC1    82200 nM
2  COc1ccc(OC)c(-c2c(C#N)c(N)nc(N3CCOCC3)c2C#N)c1    39300 nM

Documented GI50 of `Clc1nc(Cl)c2ncn(C/C=C/COc3cccc(OC/C=C/Cn4cnc5c(Cl)nc(Cl)nc54)c3)c2n1` : 95000 nM

Documented GI50 of `Cc1ccc(S(=O)(=O)Nc2cccc3[nH]c(C(F)(F)F)nc23)cc1` : 426 nM

Documented GI50 of `O=C(COc1ccc(/C=C2\Oc3ccccc3C2=O)cc1)Nc1nc2c(s1)CCCC2` : 1830 nM

Documented GI50 of `C1CN(SSN2CCOCC2)CCO1` : 32300 nM

Documented GI50 of `O=C(Nc1ccc(Cl)cc1)Nc1ccc(Nc2nncc3ccccc23)cc1` : 2570 nM

Documented GI50 of CN(C)c1ccc2c(c1)OC(N)=C(C#N)C2c1ccc2c(c1)CCO2 (centres undefined) : < 21.3 nM

###

Tested on: NCI-H23 lung
Experiment: NCI tumour cell line growth inhibition, 48 h
// values below are reported TGI

Look over these answered cases.
                                   compound  data_value
0  O=C1c2cc3c(cc2CC12Cc1ccc4c(c1C2=O)CCCC4)CCCC3 (centres undefined)    > 100 µM
1  COc1cc(C(=O)NC2CCN(C)CC2)c(F)cc1Nc1ncc2c(n1)N(C1CCCC1)CC(F)(F)C(=O)N2C      3.4 µM
2  O=C(Nc1ccccc1)N(CCCCN(Cc1ccccc1)C(=O)Nc1ccccc1)Cc1ccccc1    > 100 µM

Now, please, on to the next compound.
Documented TGI of `C[Si](C)(C)c1ccc(-c2sc(-c3ccc([Si](C)(C)C)s3)c3c2C[Si]2(C3)Cc3c(-c4ccc([Si](C)(C)C)s4)sc(-c4ccc([Si](C)(C)C)s4)c3C2)s1` : > 100 µM

###

Test system: SF-539 CNS
Experiment: NCI tumour cell line growth inhibition, 48 h
quantity: GI50

>>> print(df.to_string())
                                   molecule  data_value
0  O=C1c2ccccc2-c2c1c1ccccc1c(=O)n2CCN1CCOCC1     84.9 µM
1  O=C(NN1C(=O)CSC12CCCC2)c1[nH]c2ccc(Br)cc2c1-c1ccccc1    > 100 µM
2  C[CH2][Sn]([CH2]C)([O]C(=O)C(OC(C)=O)c1ccccc1)[O]C(=O)C(OC(C)=O)c1ccccc1 (stereo not given)     17.5 µM
3  Cc1cc(N2CCCC2)nc(N(CCNc2ccnc3cc(Cl)ccc23)Cc2ccco2)n1     3.27 µM

Summary: `O=C(Nc1ccc(Cl)c(Cl)c1)O/N=C\c1c(Cl)ccc([N+](=O)[O-])c1Cl` , SF-539 CNS, GI50 = 2.64 µM

###

System: HS 578T breast
Assay: NCI tumour cell line growth inhibition, 48 h
// values below are reported TGI

>>> print(df.to_string())
                             compound  data_value
0  O=c1oc2ccccc2cc1-c1cn2cc(Cl)ccc2n1     8.19 µM

Documented TGI of `O=C(c1cc(Cl)ccc1Cl)N1CCN(C(=O)c2cc(Cl)ccc2Cl)CC1` : > 100 µM

Documented TGI of `CSC1=N/C(=C\c2ccco2)C(=O)N1CN1CCOCC1` : > 100 µM

Documented TGI of `COc1ccc(C)cc1Nc1nnc(-c2ccccc2N)s1` : > 100 µM

Documented TGI of `CC1(C)CC(=O)c2c(nc3ccc4ccccc4c3c2-c2ccc(NC(=O)CCCCCCCCC(=O)Nc3ccc(-c4c5c(nc6ccc7ccccc7c46)CC(C)(C)CC5=O)cc3)cc2)C1` : > 100 µM

Documented TGI of COc1cc(C2c3cc4c(cc3OC(NNC(N)=O)C2C)OCO4)cc(OC)c1O (stereo not given) : > 100 µM

Documented TGI of C=C1C(=O)OC2/C=C(/C)C(OC(C)=O)CC(O)/C(C)=C\C(OC(=O)/C(C)=C\C)C12 (stereo not given) : > 100 µM

Documented TGI of `CCOC(=O)c1c(N2CCCC2)ncn(Cc2ccccc2)c1=S` : > 100 µM

Documented TGI of `C=C(CO[Si](C)(C)C(C)(C)C)C(C)=O` : > 84.4 µM

Documented TGI of `C[C@H]1C[C@H]2[C@@H]3C(C)(C)O[C@]4(O)C(=O)[C@]5(O)[C@@H](C)CC[C@H]1[C@]25C(=O)[C@]34C` : > 100 µM
